- STUDY_SYSTEM: Full length Human HDAC5 (Homo sapiens, UniProt Q9UQL6)
- Sequence (Q9UQL6 whole entry): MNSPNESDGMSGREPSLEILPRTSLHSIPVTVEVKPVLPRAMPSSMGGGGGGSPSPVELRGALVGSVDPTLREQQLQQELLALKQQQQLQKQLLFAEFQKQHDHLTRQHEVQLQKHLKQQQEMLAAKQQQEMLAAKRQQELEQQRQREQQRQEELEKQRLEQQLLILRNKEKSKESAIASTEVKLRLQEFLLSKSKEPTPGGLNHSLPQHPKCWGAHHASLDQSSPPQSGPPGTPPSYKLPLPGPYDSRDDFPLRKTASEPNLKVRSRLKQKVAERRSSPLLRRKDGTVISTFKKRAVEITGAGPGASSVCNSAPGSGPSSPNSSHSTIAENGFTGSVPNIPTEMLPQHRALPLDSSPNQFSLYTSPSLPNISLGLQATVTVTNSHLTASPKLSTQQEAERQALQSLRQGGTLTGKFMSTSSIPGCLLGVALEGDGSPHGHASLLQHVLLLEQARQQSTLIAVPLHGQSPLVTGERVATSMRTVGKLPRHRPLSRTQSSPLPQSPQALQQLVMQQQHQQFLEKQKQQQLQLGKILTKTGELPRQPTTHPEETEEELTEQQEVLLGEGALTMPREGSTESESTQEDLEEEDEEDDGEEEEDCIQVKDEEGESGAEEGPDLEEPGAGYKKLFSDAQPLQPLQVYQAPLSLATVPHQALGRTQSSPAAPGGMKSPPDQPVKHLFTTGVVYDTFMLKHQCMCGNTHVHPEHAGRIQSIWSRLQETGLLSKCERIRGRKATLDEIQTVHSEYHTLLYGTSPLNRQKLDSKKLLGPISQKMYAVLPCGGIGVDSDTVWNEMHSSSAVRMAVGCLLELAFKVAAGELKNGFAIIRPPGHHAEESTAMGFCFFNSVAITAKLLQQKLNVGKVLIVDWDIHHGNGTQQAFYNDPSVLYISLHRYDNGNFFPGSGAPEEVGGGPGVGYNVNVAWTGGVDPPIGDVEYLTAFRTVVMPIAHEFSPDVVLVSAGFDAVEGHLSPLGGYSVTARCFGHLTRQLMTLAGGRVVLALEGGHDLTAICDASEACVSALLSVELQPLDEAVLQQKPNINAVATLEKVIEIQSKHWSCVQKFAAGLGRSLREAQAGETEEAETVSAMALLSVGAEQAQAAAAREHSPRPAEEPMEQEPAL
pIC50: −log10 of the molar value.
QUANTITY: pIC50

Task: Look up pIC50 with Full length Human HDAC5 (Homo sapiens, UniProt Q9UQL6) for this compound: O=C(NO)c1cc(F)c2c(c1)C[C@H]1CCCCN1C2 (single isomer, unassigned)
Result: 4.00 to 5.00

Task: Look up pIC50 with Full length Human HDAC5 (Homo sapiens, UniProt Q9UQL6) for this compound: O=C(NO)c1ccc(CN2C[C@@H]3CC[C@H]2CO3)c(F)c1 (single isomer, unassigned)
Result: 4.00 to 5.00

Task: Look up pIC50 with Full length Human HDAC5 (Homo sapiens, UniProt Q9UQL6) for this compound: O=C(NO)c1ccc(CN2C[C@H]3CC[C@@H]2CO3)c(F)c1 (single isomer, unassigned)
Result: 4.00 to 5.00

Task: Look up pIC50 with Full length Human HDAC5 (Homo sapiens, UniProt Q9UQL6) for this compound: O=C(NO)c1ccc(CN2CC3CCC2CO3)c(F)c1 (stereo not shown)
Result: 5.00 to 6.00

Task: Look up pIC50 with Full length Human HDAC5 (Homo sapiens, UniProt Q9UQL6) for this compound: O=C(NO)c1cc(F)c2c(c1)CCN1CCC[C@@H]21 (single isomer, unassigned)
Result: 5.00 to 6.00

Task: Look up pIC50 with Full length Human HDAC5 (Homo sapiens, UniProt Q9UQL6) for this compound: O=C(NO)c1cc(F)c2c(c1)C[C@@H]1CCCCN1C2 (single isomer, unassigned)
Result: 5.00 to 6.00

# next compound below
Task: Look up pIC50 with Full length Human HDAC5 (Homo sapiens, UniProt Q9UQL6) for this compound: O=C(NO)c1ccc2c(c1)CN1CCCCN1C2
Result: < 4.00

----------
Target chain: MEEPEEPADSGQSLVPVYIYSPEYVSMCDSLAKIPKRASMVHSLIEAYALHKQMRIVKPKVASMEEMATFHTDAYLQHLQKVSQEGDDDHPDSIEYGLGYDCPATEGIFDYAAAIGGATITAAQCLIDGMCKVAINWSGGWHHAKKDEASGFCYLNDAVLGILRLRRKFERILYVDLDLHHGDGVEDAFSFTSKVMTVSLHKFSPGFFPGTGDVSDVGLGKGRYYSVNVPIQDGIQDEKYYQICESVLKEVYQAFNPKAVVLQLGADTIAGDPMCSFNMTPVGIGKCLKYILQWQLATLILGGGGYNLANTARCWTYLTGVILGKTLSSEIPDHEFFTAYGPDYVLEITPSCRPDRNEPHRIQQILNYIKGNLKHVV
pIC50: −log10 of the molar value.
QUANTITY: pIC50

Task: Requested read-out: pIC50. Entry: O=C(NO)c1ccc(CN2CCC3(C2)C2CC4CC(C2)CC3C4)c(F)c1 (centres unmarked)
Result: 6.00 to 7.00

Task: Requested read-out: pIC50. Entry: O=C(NO)c1cc(F)c2c(c1)CCN(Cc1ccccc1)C2
Result: 5.00 to 6.00

Next:
Task: Requested read-out: pIC50. Entry: O=C(NO)c1cc(F)c2c(c1)CCN(CC1CC1)C2
Result: 5.00 to 6.00

Task: Requested read-out: pIC50. Entry: O=C(NO)c1ccc(CN2CCC3(CCCCC3)C2)c(F)c1
Result: 5.00 to 6.00

Task: Requested read-out: pIC50. Entry: C[C@H]1CC[C@H]2c3c(F)cc(C(=O)NO)cc3CCN12 (single isomer, unassigned)
Result: 5.00 to 6.00
